experiment: Pharmacokinetics in mice, serum concentration by LC/MS; format: in vivo; conditions: mouse, serum, po, 5 mg/kg
measurement_type: bioavailability (%)

[P] Cc1c(CC(=O)O)c(=O)oc2c(C)c(OCc3cccc(C(F)(F)F)c3)ccc12
[Q] Cc1c(CC(=O)O)c(=O)oc2c(C)c(OCc3cccc(Br)c3)ccc12
// query Parameter check: reported bioavailability is higher for which label, P or Q ? The response must carry the label of the picked entry.
// result Q
